system: 786-0 renal; assay: NCI tumour cell line growth inhibition, 48 h
MEASUREMENT_LABEL: TGI

Challenge: Quick check: TGI of COC1OC(C)C(O)CC1OS(=O)(=O)c1ccc(C)cc1 (stereo not drawn) ?
Response given: > 100 µM

Challenge: One more compound: Cc1cc(NCCCCCCCCCC[n+]2c(C)cc(N)c3ccccc32)c2ccccc2n1
Response given: 15.1 µM

Challenge: One more compound: Cc1occc1C(=S)Nc1ccc(Cl)c(/C=N/OC(C)C)c1
Response given: 43.8 µM

Challenge: One more compound: CCCN1CCN(c2ccc3nc(-c4ccc5nc(-c6cc(OC)ccc6OC)[nH]c5c4)[nH]c3c2)CC1
Response given: 3.41 µM

Challenge: One more compound: COC(=O)c1c2c(c(C)[n+]([O-])c1C)C(=O)C=C(NCc1ccc(OC)cc1)C2=O
Response given: 23.3 µM
